Parameter: self-cleavage kobs at 160 uM GlcN6P. Scope: all listed entries.
B1: glmS ribozyme (parent)
chain: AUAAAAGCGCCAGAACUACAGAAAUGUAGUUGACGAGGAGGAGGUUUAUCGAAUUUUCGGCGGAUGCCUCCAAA

variants of: B1; assay: self-cleavage kobs at 160 uM GlcN6P; higher = faster cleavage; RNA array; details: with glucosamine-6-phosphate
This sample holds only a part of the variants without activity.

{"mutant_label": "G29A U55A", "self-cleavage kobs at 160 uM GlcN6P": "0.000532 s⁻¹"}
{"mutant_label": "C10G U31C A33C G51U C71U", "self-cleavage kobs at 160 uM GlcN6P": "< 1e-05 s⁻¹"}
{"mutant_label": "C8U G66U", "self-cleavage kobs at 160 uM GlcN6P": "< 1e-05 s⁻¹"}
{"mutant_label": "G41U A53G", "self-cleavage kobs at 160 uM GlcN6P": "0.000362 s⁻¹"}
{"mutant_label": "G40C C68A", "self-cleavage kobs at 160 uM GlcN6P": "< 1e-05 s⁻¹"}
{"mutant_label": "G35U G66U", "self-cleavage kobs at 160 uM GlcN6P": "< 1e-05 s⁻¹"}
{"mutant_label": "C10U G13U A42U U46G U57A", "self-cleavage kobs at 160 uM GlcN6P": "< 1e-05 s⁻¹"}
{"mutant_label": "U54G U65C", "self-cleavage kobs at 160 uM GlcN6P": "7.61e-05 s⁻¹"}
{"mutant_label": "A6G C11U G43C", "self-cleavage kobs at 160 uM GlcN6P": "< 1e-05 s⁻¹"}
{"mutant_label": "A6U U30G G44U A53C", "self-cleavage kobs at 160 uM GlcN6P": "< 1e-05 s⁻¹"}
{"mutant_label": "U31G U54G", "self-cleavage kobs at 160 uM GlcN6P": "0.000493 s⁻¹"}
{"mutant_label": "A14U U46G", "self-cleavage kobs at 160 uM GlcN6P": "9.07e-05 s⁻¹"}
{"mutant_label": "C16U G66C", "self-cleavage kobs at 160 uM GlcN6P": "9.64e-05 s⁻¹"}
{"mutant_label": "G35A A48C", "self-cleavage kobs at 160 uM GlcN6P": "< 1e-05 s⁻¹"}
{"mutant_label": "U46C C58U C67A", "self-cleavage kobs at 160 uM GlcN6P": "< 1e-05 s⁻¹"}
{"mutant_label": "U30A A53G", "self-cleavage kobs at 160 uM GlcN6P": "0.000553 s⁻¹"}
{"mutant_label": "G37C A64U", "self-cleavage kobs at 160 uM GlcN6P": "< 1e-05 s⁻¹"}
{"mutant_label": "U30G G32A A48G G62C", "self-cleavage kobs at 160 uM GlcN6P": "< 1e-05 s⁻¹"}
{"mutant_label": "C10G G40C C70G", "self-cleavage kobs at 160 uM GlcN6P": "< 1e-05 s⁻¹"}
{"mutant_label": "G38C G63A", "self-cleavage kobs at 160 uM GlcN6P": "< 1e-05 s⁻¹"}
{"mutant_label": "G37A C50A C61G", "self-cleavage kobs at 160 uM GlcN6P": "< 1e-05 s⁻¹"}
{"mutant_label": "G40A U56A", "self-cleavage kobs at 160 uM GlcN6P": "0.000256 s⁻¹"}
{"mutant_label": "C10U G40A", "self-cleavage kobs at 160 uM GlcN6P": "< 1e-05 s⁻¹"}
{"mutant_label": "G44A G51U", "self-cleavage kobs at 160 uM GlcN6P": "< 1e-05 s⁻¹"}
{"mutant_label": "G40C G66A", "self-cleavage kobs at 160 uM GlcN6P": "0.000162 s⁻¹"}
{"mutant_label": "G35A A42G", "self-cleavage kobs at 160 uM GlcN6P": "< 1e-05 s⁻¹"}
{"mutant_label": "C16G U31G", "self-cleavage kobs at 160 uM GlcN6P": "4.98e-05 s⁻¹"}
{"mutant_label": "C50U C70G", "self-cleavage kobs at 160 uM GlcN6P": "0.000293 s⁻¹"}
{"mutant_label": "G35C A36U C58U", "self-cleavage kobs at 160 uM GlcN6P": "< 1e-05 s⁻¹"}
{"mutant_label": "G13C A36G G63C", "self-cleavage kobs at 160 uM GlcN6P": "< 1e-05 s⁻¹"}
{"mutant_label": "A14U U54C C67U", "self-cleavage kobs at 160 uM GlcN6P": "0.000164 s⁻¹"}
{"mutant_label": "C16A G59U C68G", "self-cleavage kobs at 160 uM GlcN6P": "0.000107 s⁻¹"}
{"mutant_label": "C50G U54A", "self-cleavage kobs at 160 uM GlcN6P": "5.21e-05 s⁻¹"}
{"mutant_label": "A15U A53G", "self-cleavage kobs at 160 uM GlcN6P": "0.000531 s⁻¹"}
{"mutant_label": "G44A A52G", "self-cleavage kobs at 160 uM GlcN6P": "< 1e-05 s⁻¹"}
{"mutant_label": "C16U U46A", "self-cleavage kobs at 160 uM GlcN6P": "0.00012 s⁻¹"}
{"mutant_label": "C8G U30A G40U", "self-cleavage kobs at 160 uM GlcN6P": "< 1e-05 s⁻¹"}
{"mutant_label": "A15U U57G C58U C70A", "self-cleavage kobs at 160 uM GlcN6P": "4.86e-05 s⁻¹"}
{"mutant_label": "A6G C10U A39U", "self-cleavage kobs at 160 uM GlcN6P": "< 1e-05 s⁻¹"}
{"mutant_label": "G43C C67U", "self-cleavage kobs at 160 uM GlcN6P": "< 1e-05 s⁻¹"}
{"mutant_label": "A33G A48G C71U", "self-cleavage kobs at 160 uM GlcN6P": "< 1e-05 s⁻¹"}
{"mutant_label": "C58U C61G G66A C67A", "self-cleavage kobs at 160 uM GlcN6P": "5.89e-05 s⁻¹"}
{"mutant_label": "U31A G51A", "self-cleavage kobs at 160 uM GlcN6P": "< 1e-05 s⁻¹"}
{"mutant_label": "A6C C34U", "self-cleavage kobs at 160 uM GlcN6P": "< 1e-05 s⁻¹"}
{"mutant_label": "A12C U47C", "self-cleavage kobs at 160 uM GlcN6P": "0.000185 s⁻¹"}
{"mutant_label": "G51A U57C", "self-cleavage kobs at 160 uM GlcN6P": "< 1e-05 s⁻¹"}
{"mutant_label": "U31A A39C", "self-cleavage kobs at 160 uM GlcN6P": "0.000105 s⁻¹"}
{"mutant_label": "C11G C16A G38C", "self-cleavage kobs at 160 uM GlcN6P": "< 1e-05 s⁻¹"}
{"mutant_label": "G63U U65G", "self-cleavage kobs at 160 uM GlcN6P": "< 1e-05 s⁻¹"}
{"mutant_label": "A15U G66A", "self-cleavage kobs at 160 uM GlcN6P": "0.000124 s⁻¹"}
{"mutant_label": "A12U C71G", "self-cleavage kobs at 160 uM GlcN6P": "0.000316 s⁻¹"}
{"mutant_label": "A39C U49A C61U C68G", "self-cleavage kobs at 160 uM GlcN6P": "< 1e-05 s⁻¹"}
{"mutant_label": "G43U A52G", "self-cleavage kobs at 160 uM GlcN6P": "< 1e-05 s⁻¹"}
{"mutant_label": "A14C G32C G35U U57A", "self-cleavage kobs at 160 uM GlcN6P": "< 1e-05 s⁻¹"}
{"mutant_label": "A6C U30A", "self-cleavage kobs at 160 uM GlcN6P": "< 1e-05 s⁻¹"}
{"mutant_label": "U54A C70U", "self-cleavage kobs at 160 uM GlcN6P": "0.00258 s⁻¹"}
{"mutant_label": "C50G G51A", "self-cleavage kobs at 160 uM GlcN6P": "< 1e-05 s⁻¹"}
{"mutant_label": "U31C A39G", "self-cleavage kobs at 160 uM GlcN6P": "0.000489 s⁻¹"}
{"mutant_label": "G35A U69A", "self-cleavage kobs at 160 uM GlcN6P": "< 1e-05 s⁻¹"}
{"mutant_label": "A42C G62C G63U U69A", "self-cleavage kobs at 160 uM GlcN6P": "< 1e-05 s⁻¹"}
{"mutant_label": "G13C C34U", "self-cleavage kobs at 160 uM GlcN6P": "< 1e-05 s⁻¹"}
{"mutant_label": "A39C G44U U46C G60U G63C C68A C71A", "self-cleavage kobs at 160 uM GlcN6P": "< 1e-05 s⁻¹"}
{"mutant_label": "G35C A48C", "self-cleavage kobs at 160 uM GlcN6P": "< 1e-05 s⁻¹"}
{"mutant_label": "C34U U45C U65A", "self-cleavage kobs at 160 uM GlcN6P": "< 1e-05 s⁻¹"}
{"mutant_label": "C50G A53G C61U", "self-cleavage kobs at 160 uM GlcN6P": "0.000208 s⁻¹"}
{"mutant_label": "A14G A42U", "self-cleavage kobs at 160 uM GlcN6P": "5.25e-05 s⁻¹"}
{"mutant_label": "G37A G38A", "self-cleavage kobs at 160 uM GlcN6P": "< 1e-05 s⁻¹"}
{"mutant_label": "A12U A64C", "self-cleavage kobs at 160 uM GlcN6P": "4.03e-05 s⁻¹"}
{"mutant_label": "G40C C58A", "self-cleavage kobs at 160 uM GlcN6P": "< 1e-05 s⁻¹"}
{"mutant_label": "C61U U69A", "self-cleavage kobs at 160 uM GlcN6P": "3.86e-05 s⁻¹"}
{"mutant_label": "G7A G59C", "self-cleavage kobs at 160 uM GlcN6P": "< 1e-05 s⁻¹"}
{"mutant_label": "A36U A64C", "self-cleavage kobs at 160 uM GlcN6P": "< 1e-05 s⁻¹"}
{"mutant_label": "G43U G44A A48G C58A U69A C71G", "self-cleavage kobs at 160 uM GlcN6P": "< 1e-05 s⁻¹"}
{"mutant_label": "C11U G38A", "self-cleavage kobs at 160 uM GlcN6P": "< 1e-05 s⁻¹"}
{"mutant_label": "U31A G37A", "self-cleavage kobs at 160 uM GlcN6P": "6.91e-05 s⁻¹"}
{"mutant_label": "A12G A14C G60C", "self-cleavage kobs at 160 uM GlcN6P": "< 1e-05 s⁻¹"}
